kon values, listed per item
Target: T1, hCD138 (human Syndecan-1), extracellular domain (human) (UniProt P18827)
T1 sequence: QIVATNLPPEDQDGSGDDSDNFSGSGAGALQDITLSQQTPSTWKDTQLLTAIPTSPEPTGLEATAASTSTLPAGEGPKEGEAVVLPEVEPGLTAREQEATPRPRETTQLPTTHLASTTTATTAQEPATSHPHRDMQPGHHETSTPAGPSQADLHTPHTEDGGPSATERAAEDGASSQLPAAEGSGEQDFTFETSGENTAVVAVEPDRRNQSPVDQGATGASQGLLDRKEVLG
Assay: SPR; bivalent (avidity) set-up: CD138 amine-coupled to CM5 chip (240 RU), IgG as analyte 33-300 nM; Biacore T200, HBS-P+ pH 7.4, 25 °C; 1:1 Langmuir model
Number in M⁻¹ s⁻¹, nothing else.

Example binders with recorded kon:
binder="<CD138> Ha-Lw (antibody, V domains shown) VH: QVQLQQSGSELMMPGASVKISCKATGYTFSNYWIEWVKQRPGHGLEWIGEILPGTGSTIYNEKFKGKATFTADISSNTVQMQLSSLTSEDSAVYYCARRDYYGNFYYAMDYWGQGTSVTVSS VL: DIQMTQSTSSLSASLGDRVTISCSASQGINNYLNWYQQKPDGTVELLIYYTSTLQSGVPSRFSGSGSGTDYSLTISNLEPEDIGTYYCQQYSKLPRTFGGGTKLEIK" result_number=170000
binder="<CD138> Ha-La (antibody, V domains shown) VH: QVQLQQSGSELMMPGASVKISCKATGYTFSNYWIEWVKQRPGHGLEWIGEILPGTGSTIYNEKFKGKATFTADISSNTVQMQLSSLTSEDSAVYYCARRDYYGNFYYAMDYWGQGTSVTVSS VL: DIQMTQSTSSLSASLGDRVTISCSASQGINNYLNWYQQKPDGTVELLIYYTSTLHSGVPSRFSGSGSGTDYSLTISNLEPEDIGTYYCQQYSKLPRTFGGGTKLEIK" result_number=160000

Query binder follows.
Quick one: kon of <CD138> Hb-La (antibody, V domains shown) VH: QVQLQQSGSELMMPGASVKISCKATGYTFTGYWIEWVKQRPGHGLEWIGEILPGTGRTIYNEKFKGKATFTADISSNTVQMQLSSLTSEDSAVYYCARRDYYGNFYYAMDYWGQGTSVTVSS VL: DIQMTQSTSSLSASLGDRVTISCSASQGINNYLNWYQQKPDGTVELLIYYTSTLHSGVPSRFSGSGSGTDYSLTISNLEPEDIGTYYCQQYSKLPRTFGGGTKLEIK ? 400000
